src = PubChem BioAssay (NCI)

- Test system: MDA-N
- assayRemarks: NCI tumour cell line growth inhibition, 48 h
Assignment: determine reported TGI for the given compounds.

QUERY: Provide value of TGI for this record tested with MDA-N: COc1ccc(N2C(=O)C3c4[nH]c5c(C)cccc5c4C4CCC(C(C)(C)C)CC4C3C2=O)cc1 (stereo unspecified)
RESULT: > 10 µM

QUERY: Provide value of TGI for this record tested with MDA-N: CSc1nc(N)c(NC2OC(CO)C(O)C2O)c(=O)[nH]1 (stereo unspecified)
RESULT: > 100 µM

QUERY: Provide value of TGI for this record tested with MDA-N: COc1cccc(C=Nc2cc(C)ccn2)c1O.COc1cccc(C=Nc2cc(C)ccn2)c1O.[Cu]
RESULT: 41.3 µM

QUERY: Provide value of TGI for this record tested with MDA-N: Cc1ccc(S(=O)(=O)NCCSCCNS(=O)(=O)c2ccc(C)cc2)cc1
RESULT: > 100 µM

QUERY: Provide value of TGI for this record tested with MDA-N: O=C(Cn1c2c(c3ccccc31)CCCC2)NC1CCCCC1
RESULT: > 100 µM

QUERY: Provide value of TGI for this record tested with MDA-N: Cc1c(/C=N/NC(=S)Nc2ccccc2Cl)c(=O)n(-c2ccccc2)n1C
RESULT: > 100 µM

QUERY: Provide value of TGI for this record tested with MDA-N: O=C1C2CC=CCC2C(=O)N1n1c(-c2ccccc2)n[nH]c1=O (stereo unspecified)
RESULT: > 100 µM

QUERY: Provide value of TGI for this record tested with MDA-N: O=c1cc(-c2cccc(Cl)c2)[nH]c2ncccc12
RESULT: 0.0374 µM

QUERY: Provide value of TGI for this record tested with MDA-N: O=C(CN1CCNCCN(CC(=O)N2CCCCC2)CCNCC1)N1CCCCC1
RESULT: > 100 µM

QUERY: Provide value of TGI for this record tested with MDA-N: Cc1cc(=O)[nH]c(NN2C(Cl)C(=O)C2c2ccc(Cl)cc2)n1 (stereo unspecified)
RESULT: 72.6 µM

QUERY: Provide value of TGI for this record tested with MDA-N: C#CCOCC12C=CC(O1)C1C(=O)N(C)C(=O)C12 (stereo unspecified)
RESULT: > 100 µM

QUERY: Provide value of TGI for this record tested with MDA-N: COc1ccc(NC(=O)CC(=O)N2N=C(C)C(N=Nc3ccc(S(=O)(=O)c4ccc(N=NC5C(=O)N(C(=O)CC(=O)Nc6ccc(OC)cc6)N=C5C)cc4)cc3)C2=O)cc1 (stereo unspecified)
RESULT: > 100 µM

QUERY: Provide value of TGI for this record tested with MDA-N: Cc1cc(C)c(C2=NOC(c3ccccc3)(c3cc(=O)n(-c4ccccc4)s3)O2)c(C)c1 (stereo unspecified)
RESULT: > 100 µM

QUERY: Provide value of TGI for this record tested with MDA-N: O=C(c1ccccc1)c1ccc(COc2ccc(C(c3c(O)c4ccccc4oc3=O)c3c(O)c4ccccc4oc3=O)cc2)cc1
RESULT: 62 µM

QUERY: Provide value of TGI for this record tested with MDA-N: CCC1C(c2cc(OC)c(OC)c(OC)c2)c2cc3c(cc2OC1N1CCCC1)OCO3 (stereo unspecified)
RESULT: 0.795 µM

QUERY: Provide value of TGI for this record tested with MDA-N: CCOC(=O)c1sc2c(c1OC(=O)c1cccs1)c(=O)n(-c1ccccc1)c(=S)n2-c1ccccc1
RESULT: > 100 µM

----------
Assignment: determine reported TGI for the given compounds.
- Tested on: NCI-H460 lung
- assayRemarks: NCI tumour cell line growth inhibition, 48 h

QUERY: Data request, read-out TGI, for CC12CCC(C(=O)OC1=O)C(C)(C)O2 (stereo not given)
RESULT: > 100 µM

QUERY: Data request, read-out TGI, for COc1cc(C(=O)C/C(CCC(=O)Nc2ccccc2[N+](=O)[O-])=N\NC(=O)CC#N)ccc1O
RESULT: > 100 µM

QUERY: Data request, read-out TGI, for O=c1[nH]c2ccccc2nc1-c1c[nH]c2ccccc12
RESULT: > 100 µM

QUERY: Data request, read-out TGI, for COc1ccccc1NC(=O)/C(Cc1nc2ccc([N+](=O)[O-])cc2[nH]c1=O)=N\NC(=O)C[N+](C)(C)C
RESULT: > 100 µM

QUERY: Data request, read-out TGI, for Nc1c2c(nc3ccccc13)CCCCCC2
RESULT: 38.9 µM

QUERY: Data request, read-out TGI, for COc1cc(OC)c(OC)cc1/C=N/N=C(\N)NO
RESULT: > 100 µM

QUERY: Data request, read-out TGI, for COc1ccc(NC2Oc3cc4c(cc3C(c3cccc(OC)c3OC)C2C)OCO4)cc1 (stereo not given)
RESULT: > 100 µM

QUERY: Data request, read-out TGI, for CC1(C)CS(=O)(=O)CC(C)(C)C(=N/N)/C1=N\N
RESULT: > 100 µM

QUERY: Data request, read-out TGI, for O=c1oc2ccccc2c2c(=O)c3ccc(OC/C(=N/O)c4ccc(Cl)cc4)cc3oc12
RESULT: 33 µM

QUERY: Data request, read-out TGI, for N#CC(c1ccccc1)c1nc2ccc(=N)cc-2n(O)c1C(C#N)c1ccccc1 (stereo not given)
RESULT: > 100 µM

----------
Assignment: determine reported TGI for the given compounds.
- Test system: MDA-MB-435
- assayRemarks: NCI tumour cell line growth inhibition, 48 h

QUERY: Data request, read-out TGI, for Cc1c2cc[n+](CCN3CCCCC3)cc2c(C)c2c1[nH]c1ccc(O)cc12
RESULT: 34.5 µM

QUERY: Data request, read-out TGI, for COc1ccccc1NC(=O)/C(Cc1nc2ccc([N+](=O)[O-])cc2[nH]c1=O)=N\NC(=O)C[N+](C)(C)C
RESULT: > 100 µM

QUERY: Data request, read-out TGI, for COc1ccc(NC(=O)CC(=O)N2N=C(C)C(N=Nc3ccc(S(=O)(=O)c4ccc(N=NC5C(=O)N(C(=O)CC(=O)Nc6ccc(OC)cc6)N=C5C)cc4)cc3)C2=O)cc1 (stereo not drawn)
RESULT: > 100 µM

QUERY: Data request, read-out TGI, for CC12Nc3ccccc3N1C(=O)c1ccccc12 (stereo not drawn)
RESULT: > 100 µM

QUERY: Data request, read-out TGI, for Cc1sc(Cc2ccccc2)nc1-c1ccc(N)cc1
RESULT: 37.7 µM

QUERY: Data request, read-out TGI, for CCC1(CC)CC(=NNS(=O)(=O)c2ccc(C)cc2)C1
RESULT: > 100 µM

QUERY: Data request, read-out TGI, for C=CCOC1OC(CO[Si](C)(C)C(C)(C)C)C(OCc2ccccc2)C(OCc2ccccc2)C1OCc1ccccc1 (stereo not drawn)
RESULT: > 100 µM

QUERY: Data request, read-out TGI, for C[C@@H]1CC[C@H]2C(COCCOCC3=C(C(F)(F)F)O[C@@H]4O[C@@]5(C)CC[C@H]6[C@H](C)CC[C@@H]3[C@@]46OO5)=C(C(F)(F)F)O[C@@H]3O[C@@]4(C)CC[C@@H]1[C@]32OO4
RESULT: > 100 µM

----------
- Test system: NCI/ADR-RES ovarian
- assayRemarks: NCI tumour cell line growth inhibition, 48 h
Assignment: determine reported TGI for the given molecules.
Number in µM, nothing else.

QUERY: Data request, read-out TGI, for C=CC(=O)N(C)[C@H]1C[C@H]2OC(C)(C1OC)n1c3ccccc3c3c4c(c5c6ccccc6n2c5c31)C(=O)NC4 (stereo not given in full)
RESULT: 3.59

QUERY: Data request, read-out TGI, for CC(C)CC(CC1=CCC2CC1C2(C)C)C1=C(O)C(C)(C)C(=O)C(C)(C)C1=O (stereo not given)
RESULT: 0.979

----------
- System: SK-MEL-2 melanoma
- assayRemarks: NCI tumour cell line growth inhibition, 48 h; in the data active = GI50 below about 0.43 µM; inactive = the rest
Field 'call' accepts YES (active), NO (inactive)

QUERY: Any idea what this test logged for C=CC(=O)N(C)[C@H]1C[C@H]2OC(C)(C1OC)n1c3ccccc3c3c4c(c5c6ccccc6n2c5c31)C(=O)NC4 (some centres undefined) ?
RESULT: YES

QUERY: Any idea what this test logged for O=C1c2ccccc2-c2c1c1ccc([N+](=O)[O-])cc1c(=O)n2CCCBr ?
RESULT: NO

QUERY: Any idea what this test logged for Cc1ccc(NC(=O)/C=C/c2ccccc2)c(C(N)=O)c1 ?
RESULT: NO

QUERY: Any idea what this test logged for C[C@]12CC[C@H]3[C@@H](CCC4=CC(=O)CC[C@@H]43)[C@@H]1CC[C@@H]2OC(=O)CCc1ccccc1 ?
RESULT: NO

----------
- Tested on: M14 melanoma
- assayRemarks: NCI tumour cell line growth inhibition, 48 h
Assignment: determine reported TGI for the given compounds.
Number in µM, nothing else.

QUERY: Data request, read-out TGI, for COc1cc2nc(N3CCCC3)nc(NCC3CCCCC3)c2cc1OC
RESULT: 2.88

QUERY: Data request, read-out TGI, for NCCCN(CCCCN(CCCN)Cc1ccc2ccccc2c1)Cc1ccc2ccccc2c1
RESULT: 3.63

QUERY: Data request, read-out TGI, for COC(=O)C1=CSC2(S1)C(C(=O)OC)=CSc1c2ssc1=Nc1ccccc1 (stereo unspecified)
RESULT: 5.13

QUERY: Data request, read-out TGI, for N#CC(C#N)=Cc1ccc2c(c1)OC(Cl)O2 (stereo unspecified)
RESULT: 55.7

QUERY: Data request, read-out TGI, for CC(C)CC(CC1=CCC2CC1C2(C)C)C1=C(O)C(C)(C)C(=O)C(C)(C)C1=O (stereo unspecified)
RESULT: 5.86

QUERY: Data request, read-out TGI, for C[C@]12CC[C@H]3[C@@H](CCC4=CC(=O)CC[C@@H]43)[C@@H]1CC[C@@H]2OC(=O)CCc1ccccc1
RESULT: 46.4

QUERY: Data request, read-out TGI, for CN(C)c1ccc(N=Nc2ccc3nc[nH]c3c2)cc1
RESULT: 46.8

QUERY: Data request, read-out TGI, for Cc1c2cc[n+](CCN3CCCCC3)cc2c(C)c2c1[nH]c1ccc(O)cc12
RESULT: 50.4

QUERY: Data request, read-out TGI, for CCC1CN2CCc3cc(OC)c(OC)cc3C2CC1CC1c2cc(OC)c(OC)cc2CCN1C(=O)C1CCCN1C(=O)OCc1ccccc1 (stereo unspecified)
RESULT: 30.9
